Experiment: Cmax in pig urine at 10 mg/kg, po measured upto 240 mins by LC-MS/MS analysis
Type: ADME, organism-based, Sus scrofa
quantity: Cmax (ng/mL)
All answers are understood in ng/mL, so give the number only.

(Q) Which Cmax value is on record for `C=C[C@]1(C)C[C@@H](OC(=O)Cn2cc(-c3ccc(Cn4cnc5c(N6CCNCC6)ncnc54)nc3)nn2)[C@]2(C)[C@H](C)CC[C@]3(CCC(=O)[C@H]32)[C@@H](C)[C@@H]1O` ?
(A) 114

###

Assay: in vitro
Details: mouse, liver microsomes
quantity: CLint scaled at 0.5 h, 1 µM (L/h/kg)
All answers are understood in L/h/kg, so give the number only.

(Q) Which CLint scaled at 0.5 h, 1 µM value is on record for `C=C[C@]1(C)C[C@@H](OC(=O)Cn2cc(-c3ccc(Cn4cnc5c(N6CCN(C)CC6)ncnc54)cc3)nn2)[C@]2(C)[C@H](C)CC[C@]3(CCC(=O)[C@H]32)[C@@H](C)[C@@H]1O` ?
(A) 293

(Q) Same read-out for `C=C[C@]1(C)C[C@@H](OC(=O)CS[C@@H]2CC[C@@H](N)C[C@H]2O)[C@]2(C)[C@H](C)CC[C@]3(CCC(=O)[C@H]32)[C@@H](C)[C@@H]1O` ?
(A) 28.7

(Q) Same read-out for `C=C[C@]1(C)C[C@@H](OC(=O)Cn2cc(-c3ccc(Cn4cnc5c(N)ncnc54)nc3)nn2)[C@]2(C)[C@H](C)CC[C@]3(CCC(=O)[C@H]32)[C@@H](C)[C@@H]1O` ?
(A) 571

(Q) Same read-out for `C=C[C@]1(C)C[C@@H](OC(=O)Cn2cc(-c3ccc(Cn4cnc5c(N6CCNCC6)ncnc54)nc3)nn2)[C@]2(C)[C@H](C)CC[C@]3(CCC(=O)[C@H]32)[C@@H](C)[C@@H]1O` ?
(A) 55.7

(Q) Same read-out for `C=C[C@]1(C)C[C@@H](OC(=O)Cn2cc(-c3ccc(Cn4cnc5c(N)ncnc54)c(O)c3)nn2)[C@]2(C)[C@H](C)CC[C@]3(CCC(=O)[C@H]32)[C@@H](C)[C@@H]1O` ?
(A) 586

###

Experiment: Elimination rate constant in pig urine at 10 mg/kg, po measured upto 240 mins by LC-MS/MS analysis
Format: ADME, organism-based, Sus scrofa
quantity: k el at 4 h (s⁻¹)
All answers are understood in s⁻¹, so give the number only.

(Q) Which k el at 4 h value is on record for `C=C[C@]1(C)C[C@@H](OC(=O)Cn2cc(-c3ccc(Cn4cnc5c(N6CCNCC6)ncnc54)nc3)nn2)[C@]2(C)[C@H](C)CC[C@]3(CCC(=O)[C@H]32)[C@@H](C)[C@@H]1O` ?
(A) 8.67e-05

###

Test: Tmax in NMRI female mouse at 30 mg/kg, iv by HPLC analysis
Format: ADME, organism-based
Details: in vivo
quantity: Tmax (h)
All answers are understood in h, so give the number only.

(Q) Which Tmax value is on record for `C=C[C@]1(C)C[C@@H](OC(=O)Cn2cc(-c3ccc(Cn4cnc5c(N6CCNCC6)ncnc54)nc3)nn2)[C@]2(C)[C@H](C)CC[C@]3(CCC(=O)[C@H]32)[C@@H](C)[C@@H]1O` ?
(A) 0

###

Experiment: Half life in NMRI female mouse at 60 mg/kg, sc by HPLC analysis
Type: ADME, organism-based
Settings: in vivo
quantity: half-life
Units required after the number.

(Q) Which half-life value is on record for `C=C[C@]1(C)C[C@@H](OC(=O)Cn2cc(-c3ccc(Cn4cnc5c(N6CCNCC6)ncnc54)nc3)nn2)[C@]2(C)[C@H](C)CC[C@]3(CCC(=O)[C@H]32)[C@@H](C)[C@@H]1O` ?
(A) 1.9 h
